Measured values drawn from patent US20210277110A1 for this set.

pKd values by entry
- Study System: T1, Extracellular domain of cyno PD1 (cPD1-ECD) (Macaca fascicularis (cynomolgus))
- T1 construct: Expressed with a hexahistidine tag or as Fc fusion; also called cynoPD1-ECD; cynoPD-1-ECD
- T1 chain: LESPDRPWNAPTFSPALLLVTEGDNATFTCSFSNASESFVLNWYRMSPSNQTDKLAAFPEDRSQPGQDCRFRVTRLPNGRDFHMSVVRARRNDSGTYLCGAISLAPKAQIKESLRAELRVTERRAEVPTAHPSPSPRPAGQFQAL
- Procedure Details: SPR ProteOn, cynoPD1-ECD; RANGE high replicate
Reminder that pKd is minus the log10 of a molar concentration.

Entry PD1B187 (antibody, V domains shown, Tested as IgG2sigma; also called PD1H3/PD1L148) VH: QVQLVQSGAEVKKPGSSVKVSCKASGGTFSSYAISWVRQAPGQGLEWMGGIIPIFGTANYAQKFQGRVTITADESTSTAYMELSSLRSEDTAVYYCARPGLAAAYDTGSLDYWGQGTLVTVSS VL: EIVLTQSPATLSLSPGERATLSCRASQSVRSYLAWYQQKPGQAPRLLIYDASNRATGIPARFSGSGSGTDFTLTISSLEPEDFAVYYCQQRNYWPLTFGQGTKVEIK has what pKd?
8.08

Then PD1B183 (antibody, human IgG2, kappa, V domains shown, IgG2sigma/kappa; VH 43, VL 54; also called PD1H3/PD1L109) VH: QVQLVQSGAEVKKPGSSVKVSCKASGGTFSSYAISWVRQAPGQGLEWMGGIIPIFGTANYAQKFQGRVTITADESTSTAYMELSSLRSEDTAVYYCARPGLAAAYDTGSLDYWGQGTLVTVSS VL: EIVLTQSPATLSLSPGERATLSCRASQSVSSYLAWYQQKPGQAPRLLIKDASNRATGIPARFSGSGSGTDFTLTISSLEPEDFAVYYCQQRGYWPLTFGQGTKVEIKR ?
7.54

Then PD1B162 (antibody, human IgG2, kappa, V domains shown, IgG2sigma/kappa; VH 42, VL 52; also called PD1H131/PD1L67) VH: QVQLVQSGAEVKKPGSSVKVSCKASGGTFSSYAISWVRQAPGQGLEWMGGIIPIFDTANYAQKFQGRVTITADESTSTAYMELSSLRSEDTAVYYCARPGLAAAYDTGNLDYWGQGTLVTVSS VL: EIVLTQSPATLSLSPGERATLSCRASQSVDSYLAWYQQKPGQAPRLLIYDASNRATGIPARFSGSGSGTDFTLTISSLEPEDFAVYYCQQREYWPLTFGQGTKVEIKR ?
8.59
